# Assayed System: PLA2G7 (Mus musculus, UniProt Q60963)
# Construct: Proteomes (mouse brain membrane fraction or cell lysates); from tissue; host or cells: mouse brain membrane fraction (or cell lysates, not specified)
# Protocol Text: In vitro competitive activity-based protein profiling (gel-based, FP-Rh or HT-01 probe)
# Type: biochemical
# Experimental Setup: mouse brain membrane fraction or cell lysates, 30 min preincubation at 37° C.
Some molecules, each annotated with its measured IC50.

Completed entries (count: 3):
In one line, give reported IC50 of the entry O=C(N1CCCCC1)n1cc(C(F)(F)F)cn1 .
100 to 1000 nM

In one line, give reported IC50 of the entry CCN(Cc1ccc(N2CCOCC2)cc1)C(=O)n1cc(C#N)cn1 .
> 1000 nM

In one line, give reported IC50 of the entry CCN(Cc1ccc(C)cc1)C(=O)n1cc(C#N)cn1 .
> 1000 nM

***
In one line, give reported IC50 of the entry O=C(N1CCN(Cc2ccc(C(F)(F)F)cc2)CC1)n1cc(Cl)cn1 .
100 to 1000 nM

In one line, give reported IC50 of the entry COc1cccc(CN2CCN(C(=O)n3cc(C(F)(F)F)cn3)CC2)c1 .
< 100 nM

* * *

Some compounds, each annotated with its measured inhibition at 1 µM.
# Assayed System: PLA2G7 (Mus musculus)
# Construct: Proteomes (mouse brain membrane fraction or cell lysates); from tissue; host or cells: mouse brain membrane fraction (or cell lysates, not specified)
# Sequence (Q60963 22-440): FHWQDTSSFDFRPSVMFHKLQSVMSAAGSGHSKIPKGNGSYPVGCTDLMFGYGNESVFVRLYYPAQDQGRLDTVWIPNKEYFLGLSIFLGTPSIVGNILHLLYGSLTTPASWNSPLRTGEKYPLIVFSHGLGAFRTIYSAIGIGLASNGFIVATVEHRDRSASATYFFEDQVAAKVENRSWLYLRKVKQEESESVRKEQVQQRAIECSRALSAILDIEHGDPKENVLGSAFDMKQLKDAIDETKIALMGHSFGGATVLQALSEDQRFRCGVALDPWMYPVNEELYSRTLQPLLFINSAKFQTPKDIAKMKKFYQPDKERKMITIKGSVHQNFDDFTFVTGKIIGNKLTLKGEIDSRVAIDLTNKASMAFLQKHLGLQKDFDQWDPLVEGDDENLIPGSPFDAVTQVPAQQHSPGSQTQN
# Protocol Text: In vitro competitive activity-based protein profiling (gel-based, FP-Rh or HT-01 probe)
# Type: biochemical
# Experimental Setup: 1 μM inhibitor; gel-based competitive ABPP; read-out: % Inhibition at 1 μM, D = PLA2G7

Completed entries (count: 5):
In one line, give reported inhibition at 1 µM of the entry CCN(Cc1ccc(OC)cc1)C(=O)n1cc(C#N)cn1 .
< 25%

In one line, give reported inhibition at 1 µM of the entry N#Cc1cnn(C(=O)N2CCCN(Cc3ccc(Oc4ccccc4)cc3)CC2)c1 .
< 25%

In one line, give reported inhibition at 1 µM of the entry N#Cc1cnn(C(=O)N2CCN(Cc3ccc(C(=O)N4CCC4)cc3Cl)CC2)c1 .
> 75%

In one line, give reported inhibition at 1 µM of the entry O=C(N1CCN(Cc2cccc(OCc3ccccc3)c2)CC1)n1cccn1 .
< 25%

In one line, give reported inhibition at 1 µM of the entry O=C(N1CCN(Cc2cccc(Cl)c2)CC1)n1cc(C(F)(F)F)cn1 .
> 75%

***
In one line, give reported inhibition at 1 µM of the entry Cc1cnn(C(=O)N2CCN(Cc3cccc(OCc4ccccc4)c3)CC2)c1 .
< 25%

In one line, give reported inhibition at 1 µM of the entry CCN(Cc1cccc(C)c1)C(=O)n1cc(C(F)(F)F)cn1 .
< 25%

In one line, give reported inhibition at 1 µM of the entry CCN(Cc1ccc(OC)cc1)C(=O)n1cc(C)cn1 .
< 25%

In one line, give reported inhibition at 1 µM of the entry CCN(Cc1ccc(C)cc1)C(=O)n1cc(C#N)cn1 .
< 25%
